// data source = patent US20250250357A1

target-or-system: T1, human MSLN-R2-his protein (human, UniProt Q13421 391-486)
T1 construct: Self-made in HEK293E cells; also called human MSLN-R2 protein; hMSLN-R2-his; not shown: His tag
T1 sequence (Q13421 other isoform, or with tags, fused parts or gaps): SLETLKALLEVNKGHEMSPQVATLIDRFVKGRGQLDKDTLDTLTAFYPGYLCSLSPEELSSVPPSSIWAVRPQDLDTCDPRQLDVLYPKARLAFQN
method: ELISA on coated antigen, antibody 100 nM
observation-type: OD450 (OD450)
Reply numerically in OD450, unit not repeated.

1) S009-F2.23.12 (antibody, human IgG1, kappa, V domains shown, Human-murine chimeric antibody: murine VH/VL on human IgG1 heavy and kappa light constant regions) VH: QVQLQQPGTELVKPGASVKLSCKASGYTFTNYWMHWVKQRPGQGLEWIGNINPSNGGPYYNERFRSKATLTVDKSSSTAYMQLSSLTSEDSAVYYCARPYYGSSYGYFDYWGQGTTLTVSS VL: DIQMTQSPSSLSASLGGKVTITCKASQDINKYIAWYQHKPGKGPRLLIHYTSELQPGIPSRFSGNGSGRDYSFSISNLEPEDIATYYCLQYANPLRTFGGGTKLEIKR = 0.06

Now consider the entry below.
Task: // lookup OD450 for S009-F2.38.12 (antibody, human IgG1, kappa, V domains shown, Human-murine chimeric antibody: murine VH/VL on human IgG1 heavy and kappa light constant regions) VH: QVQLQQPGTELVKPGASVKLSCKASGYTFTSYWMHWVKQRPGQGLEWIGNINPSNGGTNYNEKIKNKATLTVDKSSSTAYMQLSSLTSEDSAVYYCARWNYYGNYPFDYWGQGTTLTVSS VL: DIVMTQSQKFMSTTVGDRVSITCKASQNVGTAVAWYQQKPGQSPKLLIYSASNRYTGVPDRFTGSGSGTDFTLTISNMQSEDLADYFCQQYSSYPLTFGAGTKLELKR
Result: 0.06
